# System: UACC-62
# RUN_DESCRIPTION: NCI tumour cell line growth inhibition, 48 h
Calls of active or inactive are those of the source. Rule as the data show it: active = GI50 up to about 1.1 µM and inactive = higher.
The reply should be one of these categories: active, inactive

compound="O=C1C(=C(C(F)(F)Cl)C(F)(F)Cl)C2CCC1C2 (centres undefined)" label=inactive
compound=CC[C@]1(O)C[C@H]2CN(CCc3c([nH]c4ccccc34)[C@@](C(=O)OC)(c3cc4c(cc3OC)N(C)[C@H]3[C@@](O)(C(=O)OC)[C@H](OC(C)=O)[C@]5(CC)C=CCN6CC[C@]43[C@@H]65)C2)C1 label=active
compound="C/C(=N/Nc1ccc([N+](=O)[O-])cc1[N+](=O)[O-])C(CC(C(=O)NCc1ccccc1)/C(C)=N\\Nc1ccc([N+](=O)[O-])cc1[N+](=O)[O-])C(=O)NCc1ccccc1 (centres undefined)" label=inactive
compound=C/C1=C\[C@H](C)C[C@H](C)OC(=O)C[C@H](c2ccc(O)cc2)NC(=O)[C@H](Cc2ccc(O)c(Br)c2)N(C)C(=O)[C@H](C)NC(=O)[C@@H](C)C1 label=inactive
compound=COC(=O)/C=C(\S/C=C(/c1ccccc1)N1CCn2c(C(=O)c3ccccc3)c(C(=O)OC)c(C(=O)OC)c21)C(=O)OC label=inactive
compound=N#COc1ccc(Oc2ccc(OC#N)cc2)cc1 label=inactive

Req: What classification did N#CC1(C2SCC[S+]2[O-])C2=C(C(=O)c3ccccc3C2=O)N2CCCC21 (centres undefined) end up with in this test?
Resp: inactive
